FYI, the data here is from the supplement of paper PMC4466140.

Give SPOT peptide array binding signal intensity for every item shown.
- measured on: AgHse1
- assay details: SPOT peptide array binding signal intensity (averaged, normalized) (arbitrary units (background-subtracted, floor 0; scale differs between SH3 domains)); higher = stronger binding of the SH3 domain to the peptide
One number for each entry.

Observe how each entry below is paired with its result.
SPOT peptide array binding signal intensity in this record for NFFRKKLGIPRKLKR : 1980

Reported SPOT peptide array binding signal intensity ( APERAVPILPPRNNV ) = 24.5

SPOT peptide array binding signal intensity for LYEAMPPTLPHRDWK is 50

***
HRRRRVFSIPSLKSI yielded SPOT peptide array binding signal intensity of 2250
